Listing: pIC50 of selected molecules
Test system: MOLM-13
Assay: Proliferation inhibition, CellTiter-Glo, MOLM-13
Assay type: cell-based, human
Settings: Homo sapiens; MOLM-13 cells; read-out: IC50 in MOLM-13 cells
pIC50: −log10 of the molar value.

[
  {
    "MOLECULE": "C=CC(=O)Nc1cc(Nc2nc(N[C@H]3CC[C@@](C)(O)CC3)c(CC)nc2C(N)=O)ccc1C [Compound C-3, reference compound]",
    "METRIC": "pIC50",
    "MEASUREMENT": "< 7.00"
  }
]

Measured pIC50, C=CC(=O)Nc1cc(Nc2nc(NC3CCOCC3)c(CC)nc2C(N)=O)ccc1N1CCC(N2CCN(C)CC2)CC1 [Compound C-2, reference compound] : 7.72

Measured pIC50, C=CC(=O)Nc1cccc(Nc2nc(N3CCC[C@H](NC(=O)c4ccc(C5CC5)cc4)[C@@H]3C)cnc2C(N)=O)c1 [Compound C-1, reference compound] : < 7.00

* * *

Listing: pIC50 of selected compounds
System: MOLM-13
Experiment: Proliferation inhibition, CellTiter-Glo, MOLM-13
Assay type: cell-based, human
Details: Homo sapiens, 96 h; MOLM-13 cells, IC50 (4 days), CellTiter-Glo; read-out: MOLM-13 IC50
pIC50: −log10 of the molar value.

[
  {
    "MOL": "CCc1nc(C(N)=O)c(Nc2cccc(CCNC(=O)[C@H](C)NC(=O)/C=C/CN(C)C)c2)nc1N(C)C(C)C",
    "EXPERIMENTAL_TARGET": "MOLM-13",
    "pIC50": "> 9.00"
  },
  {
    "MOL": "CCc1nc(C(N)=O)c(Nc2cccc(CCNC(=O)[C@H](C)N(C)C(=O)/C=C/CN(C)C)c2)nc1N(C)CC",
    "EXPERIMENTAL_TARGET": "MOLM-13",
    "pIC50": "> 9.00"
  },
  {
    "MOL": "CCc1cc(C(N)=O)c(Nc2cccc(CCNC(=O)[C@H](C)N(C)C(=O)/C=C/CN(C)C)c2)nc1C1CC1",
    "EXPERIMENTAL_TARGET": "MOLM-13",
    "pIC50": "6.30 to 7.00"
  }
]

Measured pIC50, CCc1nc(C(N)=O)c(Nc2cc(CCNC(=O)[C@H](C)N(C)C(=O)/C=C/CN(C)C)ccn2)nc1C1CC1 : 6.30 to 7.00

Measured pIC50, Cc1cc(C(N)=O)c(Nc2cncc(CCNC(=O)[C@H](C)N(C)C(=O)/C=C/CN(C)C)c2)nc1C1CC1 : 6.30 to 7.00

Measured pIC50, CCc1nc(C(N)=O)c(Nc2cccc(C[C@H](C)NC(=O)CN(C)C(=O)/C=C/CN(C)C)c2)nc1C : 6.30 to 7.00

Measured pIC50, C=CC(=O)N(C)[C@@H](C)C(=O)NCCc1cccc(Nc2nc(C3CC3)c(CC)nc2C(N)=O)c1 : 7.00 to 8.00

* * *

Target: FLT3-ITD (Homo sapiens, UniProt P36888, DUP595-601)
Sequence (P36888 with tags, fused parts or gaps DUP595-601 limits assumed): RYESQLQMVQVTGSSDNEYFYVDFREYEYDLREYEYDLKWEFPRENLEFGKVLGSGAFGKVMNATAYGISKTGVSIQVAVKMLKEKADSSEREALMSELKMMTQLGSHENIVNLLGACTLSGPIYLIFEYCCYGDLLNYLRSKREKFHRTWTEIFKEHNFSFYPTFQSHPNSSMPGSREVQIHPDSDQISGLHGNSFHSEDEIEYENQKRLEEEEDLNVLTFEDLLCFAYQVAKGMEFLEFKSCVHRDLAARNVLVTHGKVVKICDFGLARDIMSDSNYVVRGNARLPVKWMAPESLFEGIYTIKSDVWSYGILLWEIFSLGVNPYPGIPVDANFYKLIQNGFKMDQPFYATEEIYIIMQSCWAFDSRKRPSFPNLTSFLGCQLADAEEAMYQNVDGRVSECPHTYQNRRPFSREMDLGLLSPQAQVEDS
Test: FLT3-ITD Lance Ultra TR-FRET kinase assay
METRIC: IC50

[
  {
    "COMPOUND": "C#Cc1nc(C(N)=O)c(Nc2cccc(CCNC(=O)CN(C)C(=O)/C=C/CN(C)C)c2)nc1N(C)C(C)C [Compound 327]",
    "MEASUREMENT": "0.201 to 0.5 nM"
  },
  {
    "COMPOUND": "CCN(C)c1nc(Nc2cccc(CCNC(=O)[C@H](C)N(C)C(=O)/C=C/CN(C)C)c2)c(C(N)=O)nc1C [Compound 253]",
    "MEASUREMENT": "0.201 to 0.5 nM"
  }
]

Measured IC50, CCc1nc(C(N)=O)c(Nc2cccc(CCNC(=O)CN(C)C(=O)/C=C/CN3CCC3)c2)nc1N(C)CC [Compound 516A] : 0.101 to 0.2 nM

Measured IC50, CCc1nc(C(N)=O)c(Nc2cccc(CCNC(=O)[C@@H](C)N(C)C(=O)/C=C/CN(C)C)c2)nc1N(C)C(C)C [Compound 302] : > 1 nM

* * *

Listing: IC50 of selected molecules
Biological target: FLT3-ITD (Homo sapiens, UniProt P36888, DUP595-601)
Assay: FLT3-ITD Lance Ultra TR-FRET kinase assay

Measured IC50, C=CC(=O)N(C)CC(=O)NC[C@H](C)c1cccc(Nc2nc(N(C)CC)c(CC)nc2C(N)=O)c1 [Compound 513] : 0.201 to 0.5 nM

* * *

System: MOLM-13
Assay: Proliferation inhibition, CellTiter-Glo, MOLM-13
Type: cell-based, human
Settings: Homo sapiens, 96 h; MOLM-13 cells, IC50 (4 days), CellTiter-Glo; read-out: MOLM-13 IC50
Protocol: The proliferation inhibitory effect was investigated in human AML cell lines MOLM-13 (AddexBio: C0003003) and MV-4-11 (ATCC: CRL-9591), and CML cell line K-652 (ATCC: CRL-3343). […] Test compounds were dissolved at 10 mM in DMSO (Sigma catalog no. D8418; purity≥99.9%) and stored at −20° C. Eight concentrations of test compound were assessed in duplicate in an individual test occasion in parallel in the selected cell lines. […]
pIC50: −log10 of the molar value.
METRIC: pIC50

Worked set:
[
  {
    "MOL": "Cc1nc(Nc2cc(F)cc(CCNC(=O)CN(C)C(=O)/C=C/CN(C)C)c2)c(C(N)=O)nc1C",
    "pIC50": "7.00 to 8.00"
  },
  {
    "MOL": "CCc1nc(C(N)=O)c(Nc2cccc([C@H](C)CNC(=O)CN(C)C(=O)/C=C/CN(C)C)c2)nc1C",
    "pIC50": "6.30 to 7.00"
  },
  {
    "MOL": "Cc1nc(C(N)=O)c(Nc2cccc(CCNC(=O)CN(C)C(=O)/C=C/CN(C)C)c2)nc1N(C)C(C)C",
    "pIC50": "8.00 to 9.00"
  },
  {
    "MOL": "CCc1nc(C(N)=O)c(Nc2cccc(CCNC(=O)[C@H](C)N(C)C(=O)/C=C/CN(C)C)c2)nc1N(C)C",
    "pIC50": "> 9.00"
  }
]

Bench note, MOLM-13: CCc1nc(C(N)=O)c(Nc2cccc(CCNC(=O)[C@H](C)N(C)C(=O)C#CCN(C)C)c2)nc1N(C)C , pIC50 reads 8.00 to 9.00

Bench note, MOLM-13: CCc1nc(C(N)=O)c(Nc2cccc([C@@H](C)CNC(=O)CN(C)C(=O)/C=C/CN3CCC3)c2)nc1CC(C)C , pIC50 reads 8.00 to 9.00

Bench note, MOLM-13: C=Cc1nc(C(N)=O)c(Nc2cccc(CCNC(=O)CN(C)C(=O)/C=C/CN(C)C)c2)nc1N(C)C(C)C , pIC50 reads 7.00 to 8.00

* * *

Listing: GI50 of selected molecules
Biological target: Ba/F3 cell lines stably expressing human FLT3-ITD-D835Y (Homo sapiens, UniProt P36888, D835Y, cells depend on it, form not given)
Construct: Ba/F3-FLT3-ITD-D835Y Relative IC50
Sequence (P36888 1-993 D835Y): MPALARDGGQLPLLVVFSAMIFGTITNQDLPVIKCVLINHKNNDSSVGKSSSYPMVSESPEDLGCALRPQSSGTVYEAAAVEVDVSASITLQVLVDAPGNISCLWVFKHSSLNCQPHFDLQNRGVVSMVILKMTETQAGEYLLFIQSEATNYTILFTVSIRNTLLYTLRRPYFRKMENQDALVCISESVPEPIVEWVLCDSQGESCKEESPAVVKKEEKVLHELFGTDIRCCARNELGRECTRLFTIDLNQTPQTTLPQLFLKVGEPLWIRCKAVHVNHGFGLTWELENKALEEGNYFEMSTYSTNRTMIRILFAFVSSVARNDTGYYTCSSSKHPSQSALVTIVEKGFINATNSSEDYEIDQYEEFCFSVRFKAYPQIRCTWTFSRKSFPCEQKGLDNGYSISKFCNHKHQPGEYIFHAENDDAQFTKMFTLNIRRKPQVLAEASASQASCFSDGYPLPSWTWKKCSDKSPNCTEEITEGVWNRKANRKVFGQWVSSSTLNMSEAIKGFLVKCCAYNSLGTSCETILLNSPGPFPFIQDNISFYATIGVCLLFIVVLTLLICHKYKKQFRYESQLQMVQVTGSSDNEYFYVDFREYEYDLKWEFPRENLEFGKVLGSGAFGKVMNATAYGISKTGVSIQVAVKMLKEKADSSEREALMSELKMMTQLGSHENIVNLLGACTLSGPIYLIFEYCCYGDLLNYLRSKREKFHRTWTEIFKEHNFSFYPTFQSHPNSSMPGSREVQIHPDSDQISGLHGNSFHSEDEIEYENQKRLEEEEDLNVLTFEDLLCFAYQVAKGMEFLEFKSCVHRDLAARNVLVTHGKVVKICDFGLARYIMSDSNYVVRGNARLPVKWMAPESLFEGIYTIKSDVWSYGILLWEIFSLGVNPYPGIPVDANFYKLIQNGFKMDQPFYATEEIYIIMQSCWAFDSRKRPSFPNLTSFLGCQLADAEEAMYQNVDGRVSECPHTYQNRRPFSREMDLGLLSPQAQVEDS
Assay: FLT3 mutant assay, cell viability, Ba/F3-FLT3-ITD-D835Y
Format: cell-based, mouse
Settings: IC50 (3 days), CellTiter-Glo; read-out: Ba/F3-FLT3-ITD-D835Y Relative IC50

[
  {
    "MOLECULE": "CCc1nc(Nc2cccc([C@@H](C)CNC(=O)CN(C)C(=O)/C=C/CN3CCC3)c2)c(C(N)=O)nc1CC",
    "MEASUREMENT": "10 to 100 nM"
  }
]

Measured GI50, CCc1nc(C(N)=O)c(Nc2ccnc(CCNC(=O)[C@H](C)N(C)C(=O)/C=C/CN(C)C)c2)nc1C1CC1 : 10 to 100 nM

Measured GI50, CCc1nc(C(N)=O)c(Nc2cccc(CCNC(=O)[C@H](C)N(C)C(=O)/C=C/CN(C)C)c2)nc1NC(C)C : 1 to 10 nM

Measured GI50, Cc1nc(C(N)=O)c(Nc2cccc(CCNC(=O)[C@H](C)N(C)C(=O)/C=C/CN(C)C)c2)nc1N(C)C(C)C : 10 to 100 nM

Measured GI50, CCc1nc(C(N)=O)c(Nc2cccc(CCNC(=O)CN(C)C(=O)/C=C/CN3CCC3)c2)nc1OC(C)C : 10 to 100 nM

Measured GI50, CCc1nc(C(N)=O)c(Nc2cc(F)cc(CCNC(=O)CN(C)C(=O)/C=C/CN3CCC3)c2)nc1C1CC1 : 10 to 100 nM

Measured GI50, CCc1nc(C(N)=O)c(Nc2cccc([C@@H](C)CNC(=O)CN(C)C(=O)/C=C/CN3CCC3)c2)nc1N(C)CC : 10 to 100 nM

Measured GI50, CCc1nc(C(N)=O)c(Nc2ccnc(CCNC(=O)[C@H](C)N(C)C(=O)/C=C/CN(C)C)c2)nc1N(C)C(C)C : 10 to 100 nM
